Experiment: amyloid nucleation score (Sup35N fusion, yeast selection) (log enrichment); library NNK2; higher = more nucleation; inactive = no reads after selection;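 further: zero at mode of non-aggregating sequences after 7 days selection at 30°C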
propertyName: amyloid nucleation score
Keep the answer to the number alone.

Data request: Param item = VRRHADRGGVLAEISNEVVQ ; retrieve measured amyloid nucleation score.
Data returned: 0.608

Data request: Param item = WLPNQVKGHLSFRMCSDIRH ; retrieve measured amyloid nucleation score.
Data returned: 4.33

Data request: Param item = FVQCLWVAWGSSGSSWQKSE ; retrieve measured amyloid nucleation score.
Data returned: 5.54

Data request: Param item = CNGLAQKIILSTRRLLLVPG ; retrieve measured amyloid nucleation score.
Data returned: 0.537

Data request: Param item = GLNLSREYYNLFEVEVHADT ; retrieve measured amyloid nucleation score.
Data returned: -0.178

Data request: Param item = HFDFGFIGRDVIDVIDVRTN ; retrieve measured amyloid nucleation score.
Data returned: 0.039

Data request: Param item = LLFKMAYRPLWHDNNMMTCM ; retrieve measured amyloid nucleation score.
Data returned: 0.112

---

Assay: amyloid nucleation score (Sup35N fusion, yeast selection) (log enrichment); library NNK2; higher = more nucleation; inactive = no reads after selection
amyloid nucleation score values by entry
Keep the answer to the number alone.

querySequence	propertyName	numericReadout
FGISSNATRDWRLFDHRAVG	amyloid nucleation score	0.637
NHGWLYGWVVVNYTFTTGVM	amyloid nucleation score	-1.63

Turning now to a further record.
Data request: Param item = GNSISFVYQSLICFNCDLSV ; retrieve measured amyloid nucleation score.
Data returned: 7.45

---

Test: amyloid nucleation score (Sup35N fusion, yeast selection) (log enrichment); library NNK2; higher = more nucleation; inactive = no reads after selection
Label T when amyloid nucleation score is at or above 0.2; anything below gets F.

querySequence	cat
ANVGYFVGW	T

Data request: Assess whether reported amyloid nucleation score for LGYSLAACNQETGNDRYMAR sits at 0.2 or higher.
Data returned: F

Data request: Assess whether reported amyloid nucleation score for IYVECWRHRLILCIHA sits at 0.2 or higher.
Data returned: T

Data request: Assess whether reported amyloid nucleation score for CYMYDSVTNWTYWLSG sits at 0.2 or higher.
Data returned: F

Data request: Assess whether reported amyloid nucleation score for KSSEHRGCLICTIIAVDL sits at 0.2 or higher.
Data returned: T

Data request: Assess whether reported amyloid nucleation score for LVISLSISCAGKRVAQSHMG sits at 0.2 or higher.
Data returned: F

Data request: Assess whether reported amyloid nucleation score for HKGVLEINSRVETLRSSAVN sits at 0.2 or higher.
Data returned: F

Data request: Assess whether reported amyloid nucleation score for DNLSGMIPTKTVDSSRP sits at 0.2 or higher.
Data returned: T

---

Test: amyloid nucleation score (Sup35N fusion, yeast selection) (log enrichment); library NNK2; higher = more nucleation; inactive = no reads after selection
Label satisfied when amyloid nucleation score is at or above 0.2; anything below gets not satisfied.

Some solved entries appear below for comparison.
querySequence	cat
TTTESMRIWPTNRFKRCTLQ	satisfied
VLVGVEWFV	satisfied

Data request: Assess whether reported amyloid nucleation score for QWGSMVSCRCYRPPTEGPGW sits at 0.2 or higher.
Data returned: not satisfied

Data request: Assess whether reported amyloid nucleation score for ISASGVDSDEGVRPGQLMMC sits at 0.2 or higher.
Data returned: satisfied

Data request: Assess whether reported amyloid nucleation score for GSAFGGRRLFEGLRGGIREW sits at 0.2 or higher.
Data returned: satisfied

Data request: Assess whether reported amyloid nucleation score for IICTSSPQLIVYTSVRS sits at 0.2 or higher.
Data returned: satisfied

All values here come from the supplement of paper PMC12042874.
